- system tested: ATR kinase (Homo sapiens)
- Construct: purchased Eurofins 14-953
- assay method text: Inhibitory effect on ATR kinase activity (Caliper mobility shift, FAM-labeled RAD17 peptide substrate)
- Type: biochemical
- condition description: 1 nM ATR kinase (Eurofins), 28°C for 3 hours, maximum concentration 1 µM, 10 concentrations, read-out: ATR kinase IC50
Entries and their measured IC50 follow.

As a guide, the following entries are already answered.
C[C@@H]1COCCN1c1cc2c3c(nn(-c4cc[nH]n4)c3n1)CCN(C)C2(C)C [Compound 149]: < 0.01 µM
CC(C(N)=O)N1C(=O)CCn2nc(-c3cc[nH]n3)c3nc(N4CCOC[C@H]4C)cc1c32 (stereo partly shown) [Compound 104]: 0.01 to 0.1 µM
C[C@@H]1COCCN1c1cc2c3c(nn(-c4cc[nH]n4)c3n1)CCN(S(C)(=O)=O)C2C1CC1 (single isomer, unassigned) [Compound 138B]: < 0.01 µM

// switching to the query compound
Qu. Return IC50 (reported value) for this compound: C[C@@H]1COCCN1c1cc2c3c(n1)c(-c1cc[nH]n1)nn3CCC(=O)N2C1CC1 [Compound 82]
Ans. < 0.01 µM

###

- system tested: ATR kinase (Homo sapiens)
- Construct: purchased Eurofins 14-953
- assay method text: Inhibitory effect on ATR kinase activity (Caliper mobility shift, FAM-labeled RAD17 peptide substrate)
- Type: biochemical
- condition description: 1 nM ATR kinase (Eurofins), 28°C for 3 hours, maximum concentration 1 µM, 10 concentrations, read-out: ATR kinase IC50
Entries and their measured IC50 follow.

CC1Cn2nc(-c3cc[nH]n3)c3nc(N4CCOC[C@H]4C)cc(c32)N(C(C)C)C1=O (some centres unmarked): 10 to 100 nM
C[C@@H]1COCCN1c1cc2c3c(nn(-c4cc[nH]n4)c3n1)CCC(=O)N2CC1(C)CC1: < 10 nM
CC(C)C1c2cc(N3CCOC[C@H]3C)nc3c2c(nn3-c2cc[nH]n2)CCN1C1COC1 (some centres unmarked): 10 to 100 nM
CC1c2cc(N3CCOC[C@H]3C)nc3c2c(nn3-c2cc[nH]n2)CCN1S(=O)(=O)C1(C)CC1 (single isomer, unassigned) [Compound 49A]: < 10 nM

// switching to the query compound
Qu. Return IC50 (reported value) for this compound: CC(C)C1c2cc(N3CCOC[C@H]3C)nc3c2c(nn3-c2cc[nH]n2)CCN1C (single isomer, unassigned) [Compound 141A]
Ans. < 10 nM

###

- system tested: ATR kinase (Homo sapiens, UniProt Q13535)
- Construct: purchased Eurofins 14-953
- Sequence (Q13535 whole entry): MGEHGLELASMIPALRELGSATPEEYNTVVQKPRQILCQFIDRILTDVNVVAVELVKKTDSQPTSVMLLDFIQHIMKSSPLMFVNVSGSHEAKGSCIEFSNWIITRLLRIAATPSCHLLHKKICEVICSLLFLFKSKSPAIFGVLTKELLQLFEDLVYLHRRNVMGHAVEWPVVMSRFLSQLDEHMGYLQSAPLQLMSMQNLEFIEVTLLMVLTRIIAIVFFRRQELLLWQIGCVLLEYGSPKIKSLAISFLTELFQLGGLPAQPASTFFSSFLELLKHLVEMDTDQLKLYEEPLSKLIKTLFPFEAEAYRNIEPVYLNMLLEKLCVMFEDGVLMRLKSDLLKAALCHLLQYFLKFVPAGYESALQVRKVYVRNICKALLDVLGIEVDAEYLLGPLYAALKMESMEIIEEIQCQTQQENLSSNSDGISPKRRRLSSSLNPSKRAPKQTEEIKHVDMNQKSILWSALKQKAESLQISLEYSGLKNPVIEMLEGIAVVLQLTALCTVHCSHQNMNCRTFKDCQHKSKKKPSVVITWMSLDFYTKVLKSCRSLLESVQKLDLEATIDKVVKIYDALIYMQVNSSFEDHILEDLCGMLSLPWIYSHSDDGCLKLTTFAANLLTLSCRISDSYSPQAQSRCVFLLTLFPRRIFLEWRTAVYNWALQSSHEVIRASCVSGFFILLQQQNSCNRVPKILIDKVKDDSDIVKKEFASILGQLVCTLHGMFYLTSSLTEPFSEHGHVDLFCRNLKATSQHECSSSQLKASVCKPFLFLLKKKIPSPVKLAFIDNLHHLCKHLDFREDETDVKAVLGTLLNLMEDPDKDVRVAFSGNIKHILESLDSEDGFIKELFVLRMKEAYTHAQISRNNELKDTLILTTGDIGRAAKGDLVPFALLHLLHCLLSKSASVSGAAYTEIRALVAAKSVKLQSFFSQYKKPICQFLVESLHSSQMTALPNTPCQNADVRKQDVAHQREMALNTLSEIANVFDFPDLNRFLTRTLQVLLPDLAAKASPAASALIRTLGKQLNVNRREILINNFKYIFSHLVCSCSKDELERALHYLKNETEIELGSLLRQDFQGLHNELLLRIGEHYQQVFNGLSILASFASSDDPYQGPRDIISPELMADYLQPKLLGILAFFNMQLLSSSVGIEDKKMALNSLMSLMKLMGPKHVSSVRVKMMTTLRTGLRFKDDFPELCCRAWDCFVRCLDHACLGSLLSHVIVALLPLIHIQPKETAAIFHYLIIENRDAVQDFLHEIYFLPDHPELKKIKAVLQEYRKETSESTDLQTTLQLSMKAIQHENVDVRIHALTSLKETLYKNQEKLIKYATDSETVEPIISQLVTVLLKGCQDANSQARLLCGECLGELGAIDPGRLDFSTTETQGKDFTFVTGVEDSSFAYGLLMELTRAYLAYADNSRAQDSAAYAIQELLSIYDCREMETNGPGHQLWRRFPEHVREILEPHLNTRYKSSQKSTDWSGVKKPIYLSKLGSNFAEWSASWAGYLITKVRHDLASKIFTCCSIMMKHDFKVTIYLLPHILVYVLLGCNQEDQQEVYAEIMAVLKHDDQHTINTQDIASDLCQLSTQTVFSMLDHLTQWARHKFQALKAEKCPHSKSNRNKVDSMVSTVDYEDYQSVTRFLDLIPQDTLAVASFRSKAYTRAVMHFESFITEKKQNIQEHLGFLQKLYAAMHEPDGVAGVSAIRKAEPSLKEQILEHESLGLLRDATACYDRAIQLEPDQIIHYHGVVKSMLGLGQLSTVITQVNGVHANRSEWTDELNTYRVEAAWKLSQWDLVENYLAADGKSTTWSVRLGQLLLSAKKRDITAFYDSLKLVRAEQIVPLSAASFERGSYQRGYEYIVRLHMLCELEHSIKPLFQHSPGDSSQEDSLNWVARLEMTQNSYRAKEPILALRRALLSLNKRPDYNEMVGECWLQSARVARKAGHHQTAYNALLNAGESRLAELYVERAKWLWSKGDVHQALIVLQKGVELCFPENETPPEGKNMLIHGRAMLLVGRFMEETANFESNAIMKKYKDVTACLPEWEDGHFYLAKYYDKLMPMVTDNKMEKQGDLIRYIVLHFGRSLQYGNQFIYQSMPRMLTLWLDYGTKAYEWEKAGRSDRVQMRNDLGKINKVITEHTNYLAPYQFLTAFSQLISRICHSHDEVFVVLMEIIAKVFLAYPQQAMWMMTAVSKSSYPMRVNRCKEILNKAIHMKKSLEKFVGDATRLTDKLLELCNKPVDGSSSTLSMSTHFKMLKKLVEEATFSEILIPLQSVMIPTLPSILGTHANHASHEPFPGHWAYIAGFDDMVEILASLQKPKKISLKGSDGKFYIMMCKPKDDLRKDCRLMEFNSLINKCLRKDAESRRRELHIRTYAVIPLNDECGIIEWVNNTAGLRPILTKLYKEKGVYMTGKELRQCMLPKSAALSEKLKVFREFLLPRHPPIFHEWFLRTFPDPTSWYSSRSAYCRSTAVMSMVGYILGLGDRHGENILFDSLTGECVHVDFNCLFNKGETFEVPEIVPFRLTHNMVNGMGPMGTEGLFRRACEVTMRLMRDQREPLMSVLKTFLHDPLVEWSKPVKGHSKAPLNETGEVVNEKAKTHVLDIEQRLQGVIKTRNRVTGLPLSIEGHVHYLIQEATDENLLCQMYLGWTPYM
- Sequence (Q8WXE1 whole entry partner): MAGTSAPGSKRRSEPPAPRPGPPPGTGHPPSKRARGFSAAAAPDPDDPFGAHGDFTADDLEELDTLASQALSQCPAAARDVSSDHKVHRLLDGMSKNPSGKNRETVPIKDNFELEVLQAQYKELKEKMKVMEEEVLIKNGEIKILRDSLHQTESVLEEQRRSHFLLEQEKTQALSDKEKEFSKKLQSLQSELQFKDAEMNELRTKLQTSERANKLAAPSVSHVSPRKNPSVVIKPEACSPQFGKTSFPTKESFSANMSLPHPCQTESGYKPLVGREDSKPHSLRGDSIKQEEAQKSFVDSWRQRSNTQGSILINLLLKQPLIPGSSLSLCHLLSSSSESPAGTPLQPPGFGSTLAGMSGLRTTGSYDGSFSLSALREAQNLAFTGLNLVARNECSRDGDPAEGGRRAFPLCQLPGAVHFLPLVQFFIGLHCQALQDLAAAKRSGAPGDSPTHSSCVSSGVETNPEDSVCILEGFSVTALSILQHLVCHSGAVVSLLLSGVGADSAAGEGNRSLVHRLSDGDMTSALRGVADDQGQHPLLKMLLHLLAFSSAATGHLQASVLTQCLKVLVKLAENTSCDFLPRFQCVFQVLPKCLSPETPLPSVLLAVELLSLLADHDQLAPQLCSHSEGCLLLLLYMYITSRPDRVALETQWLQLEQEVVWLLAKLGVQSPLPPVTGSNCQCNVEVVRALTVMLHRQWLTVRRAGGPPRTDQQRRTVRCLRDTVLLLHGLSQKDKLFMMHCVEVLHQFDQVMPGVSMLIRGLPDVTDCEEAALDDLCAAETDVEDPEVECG
- assay method text: Inhibitory effect on ATR kinase activity (Caliper mobility shift, FAM-labeled RAD17 peptide substrate)
- Type: biochemical
- condition description: 1 nM ATR kinase (Eurofins), 28°C for 3 hours, maximum concentration 1 µM, 10 concentrations, read-out: ATR kinase IC50
pIC50: −log10 of the molar value.
parameter: pIC50

Qu. Return pIC50 (reported value) for this compound: C[C@@H]1COCCN1c1cc2c3c(nc(-c4cc[nH]n4)n3n1)CCC(=O)N2C1(C)CC1 [Compound 154]
Ans. > 8.00

Qu. Return pIC50 (reported value) for this compound: C[C@@H]1COCCN1c1cc2c3c(nn(-c4cc[nH]n4)c3n1)CCN(C1CCOC1)C2 (stereo partly drawn) [Compound 4]
Ans. 7.00 to 8.00

Qu. Return pIC50 (reported value) for this compound: CC(C)N1CCc2nn(-c3cc[nH]n3)c3nc(N4CCOC[C@H]4C)cc(c23)C1C (single isomer, unassigned) [Compound 36B]
Ans. > 8.00

Qu. Return pIC50 (reported value) for this compound: C[C@@H]1COCCN1c1cc2c3c(n1)c(-c1cc[nH]n1)nn3CCCN2C1CC1 [Compound 122]
Ans. 7.00 to 8.00
